Test system: S180 tumor
Experiment: Biodistribution in tumor-bearing mice
Assay type: in vivo
Details: 120 min p.i., in words
Method: The mice bearing S180 tumors were injected intravenously via the tail vein respectively with the solutions (0.1 mL, 370 kBq) containing the radioactive drugs of Examples 1-4. […] After dissection, the heart, liver, lung, kidney, spleen, bone, muscle, small intestine, blood and tumors were harvested, and measured for radioactivity with the γ-counter. The biodistribution individual organs or tissues was expressed as the percentage of the injected dose per gram of organ or tissue (% ID/g).

COMPOUND | tumor uptake compared with 99mTc-CNPEDG
O=C(NC1C(O)OC(CO)C(O)C1O)c1ccc(CC[N+]#[C][99Tc+]([C]#[N+]CCc2ccc(C(=O)NC3C(O)OC(CO)C(O)C3O)cc2)([C]#[N+]CCc2ccc(C(=O)NC3C(O)OC(CO)C(O)C3O)cc2)([C]#[N+]CCc2ccc(C(=O)NC3C(O)OC(CO)C(O)C3O)cc2)([C]#[N+]CCc2ccc(C(=O)NC3C(O)OC(CO)C(O)C3O)cc2)[C]#[N+]CCc2ccc(C(=O)NC3C(O)OC(CO)C(O)C3O)cc2)cc1 (stereo not shown) [^99mTc-4-CNPeDG] | lower tumor uptake
O=C(NC1C(O)OC(CO)C(O)C1O)c1cccc([N+]#[C][99Tc+]([C]#[N+]c2cccc(C(=O)NC3C(O)OC(CO)C(O)C3O)c2)([C]#[N+]c2cccc(C(=O)NC3C(O)OC(CO)C(O)C3O)c2)([C]#[N+]c2cccc(C(=O)NC3C(O)OC(CO)C(O)C3O)c2)([C]#[N+]c2cccc(C(=O)NC3C(O)OC(CO)C(O)C3O)c2)[C]#[N+]c2cccc(C(=O)NC3C(O)OC(CO)C(O)C3O)c2)c1 (stereo not shown) [^99mTc-3-CNBzDG] | lower tumor uptake
O=C(NC1C(O)OC(CO)C(O)C1O)c1cccc(C[N+]#[C][99Tc+]([C]#[N+]Cc2cccc(C(=O)NC3C(O)OC(CO)C(O)C3O)c2)([C]#[N+]Cc2cccc(C(=O)NC3C(O)OC(CO)C(O)C3O)c2)([C]#[N+]Cc2cccc(C(=O)NC3C(O)OC(CO)C(O)C3O)c2)([C]#[N+]Cc2cccc(C(=O)NC3C(O)OC(CO)C(O)C3O)c2)[C]#[N+]Cc2cccc(C(=O)NC3C(O)OC(CO)C(O)C3O)c2)c1 (stereo not shown) [^99mTc-3-CNPEDG] | lower tumor uptake

---

tested on: S180 tumor; assay: Biodistribution in tumor-bearing mice; format: in vivo; conditions: 30 min, i.v., mice bearing S180 tumor, n=5, mean ± SD
Catalogue of Bone readings, one per entry.

MOLECULE | UNITS_LABEL | Bone
O=C(NC1C(O)OC(CO)C(O)C1O)c1cccc(C[N+]#[C][99Tc+]([C]#[N+]Cc2cccc(C(=O)NC3C(O)OC(CO)C(O)C3O)c2)([C]#[N+]Cc2cccc(C(=O)NC3C(O)OC(CO)C(O)C3O)c2)([C]#[N+]Cc2cccc(C(=O)NC3C(O)OC(CO)C(O)C3O)c2)([C]#[N+]Cc2cccc(C(=O)NC3C(O)OC(CO)C(O)C3O)c2)[C]#[N+]Cc2cccc(C(=O)NC3C(O)OC(CO)C(O)C3O)c2)c1 (stereo not drawn) [^99mTc-3-CNPEDG] | % ID/g | 1.26
O=C(NC1C(O)OC(CO)C(O)C1O)c1ccc(CC[N+]#[C][99Tc+]([C]#[N+]CCc2ccc(C(=O)NC3C(O)OC(CO)C(O)C3O)cc2)([C]#[N+]CCc2ccc(C(=O)NC3C(O)OC(CO)C(O)C3O)cc2)([C]#[N+]CCc2ccc(C(=O)NC3C(O)OC(CO)C(O)C3O)cc2)([C]#[N+]CCc2ccc(C(=O)NC3C(O)OC(CO)C(O)C3O)cc2)[C]#[N+]CCc2ccc(C(=O)NC3C(O)OC(CO)C(O)C3O)cc2)cc1 (stereo not drawn) [^99mTc-4-CNPeDG] | % ID/g | 1.10
O=C(NC1C(O)OC(CO)C(O)C1O)c1cccc([N+]#[C][99Tc+]([C]#[N+]c2cccc(C(=O)NC3C(O)OC(CO)C(O)C3O)c2)([C]#[N+]c2cccc(C(=O)NC3C(O)OC(CO)C(O)C3O)c2)([C]#[N+]c2cccc(C(=O)NC3C(O)OC(CO)C(O)C3O)c2)([C]#[N+]c2cccc(C(=O)NC3C(O)OC(CO)C(O)C3O)c2)[C]#[N+]c2cccc(C(=O)NC3C(O)OC(CO)C(O)C3O)c2)c1 (stereo not drawn) [^99mTc-3-CNBzDG] | % ID/g | 1.44
